- Tested on: Female BALB/c mice
- Assay Remarks: Performance evaluation of in vivo delivery of Fluc mRNA lipid nanoparticle (IVIS, body and organs)
- Experimental Conditions: Fluc mRNA LNP, IV, 6 hours after injection
Task for the reader: assign each of the following compounds its reported (Spleen/Total Flux) * 100%.
Reply with the number and its unit after it.

// known answers, use as guide
Compound	(Spleen/Total Flux) * 100%
CCCCCCC(CCCCCC)OC(=O)CCCCCCCCC(CCCCCCCCC(=O)OC(CCCCCC)CCCCCC)OC(=O)N(CCCCCC(=O)OC(C)CC)CCCN(C)C (stereo not drawn)	0.82%
CCCCCCC(CCCCCC)OC(=O)CCCCCCCCC(CCCCCCCCC(=O)OC(CCCCCC)CCCCCC)OC(=O)N(CCCC(=O)OC(C)CC)CCCN(C)C (stereo not drawn)	0.78%

Kindly review the next compound as well.
**Query** Recorded (Spleen/Total Flux) * 100% of CCCCCCCCOC(=O)CN(CCCN(C)C)C(=O)OC(CCCCCCCCC(=O)OC(CCCCCC)CCCCCC)CCCCCCCCC(=O)OC(CCCCCC)CCCCCC , please.
**Result** 0.80%
